Ref: patent US20230183245A1

system: Heliothis virescens; experiment: Tobacco budworm (Heliothis virescens) microtiter diet test; format: in vivo; settings: 120 h, 800 ppm, 5 days, read-out: Egg and larval mortality in comparison with untreated controls
Exercise: for every item that follows, state its recorded mortality at 800 ppm.

Kindly note the recorded mortality at 800 ppm for CCS(=O)(=O)c1cc(C(C)(C)C#N)cnc1-c1cn2c(=O)n(CC3CC3)c(C(F)(F)F)cc2n1 , which is > 75%

mortality at 800 ppm measured on CCS(=O)(=O)c1cc(/C(C#N)=N/OCC2CC2)cnc1-c1cn2c(=O)n(C3CC3)c(C(F)(F)F)cc2n1 = > 75%

mortality at 800 ppm measured on CCS(=O)(=O)c1cc(/C(C#N)=N/OCC(F)(F)F)cnc1-c1cn2c(=O)n(C3CC3)c(C(F)(F)F)cc2n1 = > 75%

Lookup result for CCS(=O)(=O)c1cc(/C(C#N)=N/OC)cnc1-c1cn2c(=O)n(C3CC3)c(C(F)(F)F)cc2n1 ; measured mortality at 800 ppm: > 75%

Consider CCS(=O)(=O)c1cc(/C=N/OCC(F)(F)F)cnc1-c1cn2c(=O)n(C3CC3)c(C(F)(F)F)cc2n1 . Its measured mortality at 800 ppm is > 75%

The value of mortality at 800 ppm measured for the compound CCS(=O)(=O)c1cc(C2(C#N)CC2)cnc1-c1cn2c(=O)n(C3CC3)c(C(F)(F)F)cc2n1 turned out to be > 75%

The compound listed as CCS(=O)(=O)c1cc(/C=N/OC(C)C)cnc1-c1cn2c(=O)n(C3CC3)c(C(F)(F)F)cc2n1 shows mortality at 800 ppm equal to > 75%

CCO/N=C/c1cnc(-c2cn3c(=O)n(C4CC4)c(C(F)(F)F)cc3n2)c(S(=O)(=O)CC)c1 has a reported mortality at 800 ppm of > 75%
